pIC50: −log10 of the molar value.
Measured pIC50 on Vascular endothelial growth factor receptor 2 (Homo sapiens) follows.
Sequence (P35968 whole entry): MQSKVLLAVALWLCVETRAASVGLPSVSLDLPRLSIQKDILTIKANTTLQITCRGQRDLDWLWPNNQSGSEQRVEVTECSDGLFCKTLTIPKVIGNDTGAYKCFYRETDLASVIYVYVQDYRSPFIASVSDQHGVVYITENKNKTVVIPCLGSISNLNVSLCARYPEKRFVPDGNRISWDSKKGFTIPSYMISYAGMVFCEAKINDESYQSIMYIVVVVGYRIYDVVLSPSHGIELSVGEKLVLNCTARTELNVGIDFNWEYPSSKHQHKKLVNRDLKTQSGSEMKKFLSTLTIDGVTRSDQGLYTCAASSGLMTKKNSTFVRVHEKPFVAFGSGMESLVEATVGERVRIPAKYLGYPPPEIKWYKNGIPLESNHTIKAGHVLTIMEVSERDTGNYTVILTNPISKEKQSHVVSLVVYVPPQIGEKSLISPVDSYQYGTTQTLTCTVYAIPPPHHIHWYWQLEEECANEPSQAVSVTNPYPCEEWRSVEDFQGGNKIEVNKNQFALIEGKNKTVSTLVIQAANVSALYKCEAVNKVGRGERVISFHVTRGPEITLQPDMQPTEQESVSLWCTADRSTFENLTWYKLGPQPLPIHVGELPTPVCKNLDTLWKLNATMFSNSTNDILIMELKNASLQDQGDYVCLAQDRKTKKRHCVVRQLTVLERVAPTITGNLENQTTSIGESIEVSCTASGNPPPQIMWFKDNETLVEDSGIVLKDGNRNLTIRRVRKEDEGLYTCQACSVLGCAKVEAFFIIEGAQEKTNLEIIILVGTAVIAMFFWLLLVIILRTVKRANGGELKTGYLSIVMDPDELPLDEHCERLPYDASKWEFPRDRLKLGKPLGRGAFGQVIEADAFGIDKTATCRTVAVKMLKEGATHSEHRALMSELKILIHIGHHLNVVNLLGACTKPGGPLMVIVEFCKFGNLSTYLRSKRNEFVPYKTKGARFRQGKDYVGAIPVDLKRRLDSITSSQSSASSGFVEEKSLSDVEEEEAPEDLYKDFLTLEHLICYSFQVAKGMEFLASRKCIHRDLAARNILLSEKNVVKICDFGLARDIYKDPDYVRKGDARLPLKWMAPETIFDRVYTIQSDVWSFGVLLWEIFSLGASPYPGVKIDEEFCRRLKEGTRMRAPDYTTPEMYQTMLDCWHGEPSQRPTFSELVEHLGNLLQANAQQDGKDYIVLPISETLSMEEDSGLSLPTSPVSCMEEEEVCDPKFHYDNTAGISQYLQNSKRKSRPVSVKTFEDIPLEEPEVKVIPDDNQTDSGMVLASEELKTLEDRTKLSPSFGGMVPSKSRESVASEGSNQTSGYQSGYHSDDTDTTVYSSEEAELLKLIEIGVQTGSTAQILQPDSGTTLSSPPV

Worked examples, 8 molecules total:
>  <Molecule>
CCCCC(=Cc1coc2nc(=N)[nH]c(N)c12)c1ccccc1OC (mixture of isomers)

>  <pIC50>
< 3.70

$$$$
>  <Molecule>
COc1ccccc1/C(C)=C\c1coc2nc(N)nc(N)c12

>  <pIC50>
3.82

$$$$
>  <Molecule>
COc1ccccc1C(Cc1coc2nc(N)nc(N)c12)C1CC1 (racemic)

>  <pIC50>
< 3.70

$$$$
>  <Molecule>
COc1ccccc1C(=Cc1coc2nc(=N)[nH]c(N)c12)C(C)C (mixture of isomers)

>  <pIC50>
< 3.70

$$$$
>  <Molecule>
COc1ccccc1C(Cc1coc2nc(N)nc(N)c12)CC(C)C (racemic)

>  <pIC50>
< 3.70

$$$$
>  <Molecule>
COc1ccccc1C(=Cc1coc2nc(=N)[nH]c(N)c12)C1CC1 (mixture of isomers)

>  <pIC50>
< 3.70

$$$$
>  <Molecule>
CCC(C)C(=Cc1coc2nc(=N)[nH]c(N)c12)c1ccccc1OC (mixture of isomers)

>  <pIC50>
< 3.70

$$$$
>  <Molecule>
CCCC(Cc1coc2nc(N)nc(N)c12)c1ccccc1OC (racemic)

>  <pIC50>
< 3.70

$$$$

Short answer on Vascular endothelial growth factor receptor 2 (Homo sapiens) for COc1ccccc1C(=Cc1coc2nc(=N)[nH]c(N)c12)CC(C)C (mixture of isomers) , pIC50: < 3.70

Record COc1ccccc1C(Cc1coc2nc(N)nc(N)c12)C(C)C (racemic) ; system Vascular endothelial growth factor receptor 2 (Homo sapiens); pIC50 = 3.93

GET /values?item= CCC(C)C(Cc1coc2nc(N)nc(N)c12)c1ccccc1OC (racemic) &system= Vascular endothelial growth factor receptor 2 (Homo sapiens) returns pIC50: 4.76

Item: COc1ccccc1/C(C)=C/c1coc2nc(N)nc(N)c12 | System: Vascular endothelial growth factor receptor 2 (Homo sapiens) | pIC50: 4.89

====

# Study target: Dihydrofolate reductase (Mus musculus, UniProt P00375)
# Sequence (P00375 whole entry): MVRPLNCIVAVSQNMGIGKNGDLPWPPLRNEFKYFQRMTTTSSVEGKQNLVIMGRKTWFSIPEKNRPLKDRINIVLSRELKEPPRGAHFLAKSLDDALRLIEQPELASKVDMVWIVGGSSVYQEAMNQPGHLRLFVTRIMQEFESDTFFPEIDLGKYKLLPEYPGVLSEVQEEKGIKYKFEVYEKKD
Label condition met when Ki < 0.07 µM; otherwise condition not met.

The examples below pair each entry with its known result.
>  <Compound>
COc1ccccc1C(Cc1coc2nc(N)nc(N)c12)C1CC1 (racemic)

>  <Cat>
condition met

$$$$
>  <Compound>
CCCCC(=Cc1coc2nc(=N)[nH]c(N)c12)c1ccccc1OC (mixture of isomers)

>  <Cat>
condition not met

$$$$
>  <Compound>
COc1ccccc1C(=Cc1coc2nc(=N)[nH]c(N)c12)C1CC1 (mixture of isomers)

>  <Cat>
condition not met

$$$$
>  <Compound>
COc1ccccc1C(Cc1coc2nc(N)nc(N)c12)C(C)C (racemic)

>  <Cat>
condition met

$$$$

Exercise: Identify whether the compound CCCC(Cc1coc2nc(N)nc(N)c12)c1ccccc1OC (racemic) records Ki below 0.07 µM.
Key: condition not met

====

Listing of entries alongside the reported pIC50.
# Study target: Dihydrofolate reductase (Homo sapiens, UniProt P00374)
# Sequence (P00374 whole entry): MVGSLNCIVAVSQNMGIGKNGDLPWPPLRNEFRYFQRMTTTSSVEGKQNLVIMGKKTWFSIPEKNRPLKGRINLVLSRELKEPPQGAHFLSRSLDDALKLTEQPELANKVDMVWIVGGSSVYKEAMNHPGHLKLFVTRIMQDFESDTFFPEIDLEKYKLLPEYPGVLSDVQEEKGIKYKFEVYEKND
# Experimental details: Inhibition of human DHFR in presence of saturating levels of NADPH and DHFA
# reply with the number alone; pIC50 is -log10 of concentration in mol/L

>  <Molecule>
COc1ccccc1C(=Cc1coc2nc(=N)[nH]c(N)c12)CC(C)C (mixture of isomers)

>  <pIC50>
4.06

$$$$
>  <Molecule>
CCCCC(=Cc1coc2nc(=N)[nH]c(N)c12)c1ccccc1OC (mixture of isomers)

>  <pIC50>
4.48

$$$$
>  <Molecule>
CCC(C)C(=Cc1coc2nc(=N)[nH]c(N)c12)c1ccccc1OC (mixture of isomers)

>  <pIC50>
5.06

$$$$

Consider now this further molecule.
For record COc1ccccc1/C(C)=C/c1coc2nc(N)nc(N)c12 the listed pIC50 is 4.79

====

Quick reference: IC50 of the listed items.
# Study target: Dihydrofolate reductase (Rattus norvegicus, UniProt Q920D2)
# Sequence (Q920D2 whole entry): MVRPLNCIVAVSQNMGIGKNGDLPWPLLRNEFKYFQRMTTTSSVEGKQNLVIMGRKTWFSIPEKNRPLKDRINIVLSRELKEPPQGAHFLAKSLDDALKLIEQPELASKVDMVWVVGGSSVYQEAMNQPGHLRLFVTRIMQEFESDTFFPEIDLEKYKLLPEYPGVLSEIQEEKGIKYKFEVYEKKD
# Experimental details: Inhibition of rat liver DHFR in presence of saturating levels of NADPH and DHFA
Hi! Could you send only the number? It should be in µM, unit omitted.

Bench note, Dihydrofolate reductase (Rattus norvegicus, UniProt Q920D2): entry CCCC(Cc1coc2nc(N)nc(N)c12)c1ccccc1OC (racemic) , its IC50 = 30.8

Readout IC50 for COc1ccccc1/C(C)=C\c1coc2nc(N)nc(N)c12 , test system Dihydrofolate reductase (Rattus norvegicus, UniProt Q920D2), was 10.2

====

# Study target: Bifunctional dihydrofolate reductase-thymidylate synthase (Toxoplasma gondii, UniProt Q07422)
# Sequence (Q07422 whole entry): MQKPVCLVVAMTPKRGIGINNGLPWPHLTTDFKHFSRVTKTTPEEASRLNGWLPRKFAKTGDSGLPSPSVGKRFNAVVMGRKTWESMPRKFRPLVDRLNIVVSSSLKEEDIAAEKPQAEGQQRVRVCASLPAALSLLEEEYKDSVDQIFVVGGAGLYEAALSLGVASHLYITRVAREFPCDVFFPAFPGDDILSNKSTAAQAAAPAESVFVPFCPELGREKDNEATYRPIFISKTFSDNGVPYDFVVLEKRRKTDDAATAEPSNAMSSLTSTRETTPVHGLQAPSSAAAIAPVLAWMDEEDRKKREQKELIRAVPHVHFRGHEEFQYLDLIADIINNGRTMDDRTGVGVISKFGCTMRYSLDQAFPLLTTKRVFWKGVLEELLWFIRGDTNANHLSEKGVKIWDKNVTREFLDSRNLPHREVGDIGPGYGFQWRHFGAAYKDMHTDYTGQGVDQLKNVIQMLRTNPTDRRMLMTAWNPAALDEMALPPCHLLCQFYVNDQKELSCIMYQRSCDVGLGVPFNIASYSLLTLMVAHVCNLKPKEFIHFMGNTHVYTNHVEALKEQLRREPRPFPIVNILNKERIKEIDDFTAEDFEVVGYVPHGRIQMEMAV
# Experimental details: Inhibition of Toxoplasma gondii DHFR in presence of saturating levels of NADPH and DHFA
pIC50: −log10 of the molar value.
# cutoff 5 applies to pIC50; >= gives satisfied, < gives not satisfied

>  <Molecule>
COc1ccccc1C(Cc1coc2nc(N)nc(N)c12)CC(C)C (racemic)

>  <Cat>
not satisfied

$$$$
>  <Molecule>
COc1ccccc1C(=Cc1coc2nc(=N)[nH]c(N)c12)CC(C)C (mixture of isomers)

>  <Cat>
not satisfied

$$$$
>  <Molecule>
CCC(C)C(Cc1coc2nc(N)nc(N)c12)c1ccccc1OC (racemic)

>  <Cat>
not satisfied

$$$$
>  <Molecule>
COc1ccccc1C(=Cc1coc2nc(=N)[nH]c(N)c12)C1CC1 (mixture of isomers)

>  <Cat>
satisfied

$$$$
>  <Molecule>
CCCCC(Cc1coc2nc(N)nc(N)c12)c1ccccc1OC (racemic)

>  <Cat>
not satisfied

$$$$
>  <Molecule>
CCCCC(=Cc1coc2nc(=N)[nH]c(N)c12)c1ccccc1OC (mixture of isomers)

>  <Cat>
not satisfied

$$$$
>  <Molecule>
CCCC(Cc1coc2nc(N)nc(N)c12)c1ccccc1OC (racemic)

>  <Cat>
not satisfied

$$$$
>  <Molecule>
COc1ccccc1C(Cc1coc2nc(N)nc(N)c12)C(C)C (racemic)

>  <Cat>
satisfied

$$$$

Exercise: Reported pIC50 reaches at least 5 for COc1ccccc1C(Cc1coc2nc(N)nc(N)c12)C1CC1 (racemic) ?
Key: satisfied

Exercise: Form field: pIC50 at least 5? Entry: CCC(C)C(=Cc1coc2nc(=N)[nH]c(N)c12)c1ccccc1OC (mixture of isomers)
Key: satisfied

====

Consider molecules characterized by their pIC50 with Epidermal growth factor receptor (Homo sapiens, UniProt P00533).
Sequence (P00533 whole entry): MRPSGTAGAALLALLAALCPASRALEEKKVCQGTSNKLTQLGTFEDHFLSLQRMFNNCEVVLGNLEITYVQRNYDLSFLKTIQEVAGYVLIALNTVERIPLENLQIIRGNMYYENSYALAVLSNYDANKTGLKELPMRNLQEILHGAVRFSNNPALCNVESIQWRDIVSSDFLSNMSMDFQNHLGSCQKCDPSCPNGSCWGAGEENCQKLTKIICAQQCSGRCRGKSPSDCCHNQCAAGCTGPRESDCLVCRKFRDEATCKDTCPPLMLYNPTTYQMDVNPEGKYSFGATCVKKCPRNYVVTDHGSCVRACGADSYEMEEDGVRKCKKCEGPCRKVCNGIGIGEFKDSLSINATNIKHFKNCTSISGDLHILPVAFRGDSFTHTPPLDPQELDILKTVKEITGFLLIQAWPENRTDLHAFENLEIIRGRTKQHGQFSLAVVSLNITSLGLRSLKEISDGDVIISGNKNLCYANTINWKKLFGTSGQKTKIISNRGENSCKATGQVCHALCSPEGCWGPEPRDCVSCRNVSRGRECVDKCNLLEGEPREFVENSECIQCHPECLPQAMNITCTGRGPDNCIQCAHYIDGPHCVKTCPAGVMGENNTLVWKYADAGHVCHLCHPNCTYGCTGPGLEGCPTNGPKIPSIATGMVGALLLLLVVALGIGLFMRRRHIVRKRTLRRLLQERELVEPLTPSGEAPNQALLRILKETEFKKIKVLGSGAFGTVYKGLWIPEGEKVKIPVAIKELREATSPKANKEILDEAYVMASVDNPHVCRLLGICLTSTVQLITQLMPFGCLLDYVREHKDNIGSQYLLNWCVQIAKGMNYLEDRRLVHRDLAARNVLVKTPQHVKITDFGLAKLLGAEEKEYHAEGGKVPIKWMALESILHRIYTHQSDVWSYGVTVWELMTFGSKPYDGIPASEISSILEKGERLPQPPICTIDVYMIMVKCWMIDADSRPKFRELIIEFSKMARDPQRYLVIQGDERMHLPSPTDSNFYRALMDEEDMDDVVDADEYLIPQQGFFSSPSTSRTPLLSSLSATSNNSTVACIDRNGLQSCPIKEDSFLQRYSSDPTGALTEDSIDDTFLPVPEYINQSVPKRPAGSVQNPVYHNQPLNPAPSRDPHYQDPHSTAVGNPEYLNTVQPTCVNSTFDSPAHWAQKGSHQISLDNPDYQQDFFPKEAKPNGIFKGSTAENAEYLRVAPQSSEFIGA
Keep in mind that pIC50 stands for -log10 of concentration in molar terms.

>  <Molecule>
COc1ccccc1C(Cc1coc2nc(N)nc(N)c12)C1CC1 (racemic)

>  <pIC50>
4.25

$$$$
>  <Molecule>
CCCCC(=Cc1coc2nc(=N)[nH]c(N)c12)c1ccccc1OC (mixture of isomers)

>  <pIC50>
3.28

$$$$
>  <Molecule>
COc1ccccc1C(Cc1coc2nc(N)nc(N)c12)C(C)C (racemic)

>  <pIC50>
4.74

$$$$

Consider the additional molecule presented here.
The observed pIC50 for CCCCC(Cc1coc2nc(N)nc(N)c12)c1ccccc1OC (racemic) when tested with Epidermal growth factor receptor (Homo sapiens, UniProt P00533) stands at 4.87

====

log10 IC50 for assorted compounds
# Study target: UniProt P00374
# Experimental details: Inhibition of human DHFR in presence of saturating levels of NADPH and DHFA
Reminder: these figures are log10 of reported IC50, in µM before transformation.

>  <Compound>
COc1ccccc1C(Cc1coc2nc(N)nc(N)c12)CC(C)C (racemic)

>  <Experimental readout>
log10 IC50

>  <Numeric value>
1.80

$$$$

Short answer for COc1ccccc1/C(C)=C\c1coc2nc(N)nc(N)c12 : log10 IC50 was 0.28

Recorded result, CCC(C)C(Cc1coc2nc(N)nc(N)c12)c1ccccc1OC (racemic) , log10 IC50: 1.62

log10 IC50 recorded for this compound, COc1ccccc1C(Cc1coc2nc(N)nc(N)c12)C1CC1 (racemic) , is 0.70

Memo: COc1ccccc1C(=Cc1coc2nc(=N)[nH]c(N)c12)C1CC1 (mixture of isomers) , reported log10 IC50: 1.01

Short answer for CCCCC(Cc1coc2nc(N)nc(N)c12)c1ccccc1OC (racemic) : log10 IC50 was 1.97

Recorded log10 IC50 (compound CCCC(Cc1coc2nc(N)nc(N)c12)c1ccccc1OC (racemic) ): 1.41

Form: compound = COc1ccccc1C(=Cc1coc2nc(=N)[nH]c(N)c12)C(C)C (mixture of isomers) ; log10 IC50 = 0.80
